Data origin: paper PMC5042352

- assay_text: Stability of the analytes in human plasma at QC levels
- Assay type: in vitro ADME
- run_conditions: low QC; 6 h, r.t.; human plasma; n = 5
quantity_measured: Short-term Dev. (%)

Solved entries (count: 3):
{"compound": "CCC(=O)OCC(=O)[C@@]1(O)[C@@H](C)C[C@H]2[C@@H]3CCC4=CC(=O)C=C[C@]4(C)[C@@]3(F)[C@@H](O)C[C@@]21C [B21P, betamethasone 21-monopropionate]", "quantity_measured": "Short-term Dev. (%)", "result_value": 2.97}
{"compound": "C[C@H]1C[C@H]2[C@@H]3CCC4=CC(=O)C=C[C@]4(C)[C@@]3(F)[C@@H](O)C[C@]2(C)[C@@]1(O)C(=O)CO", "quantity_measured": "Short-term Dev. (%)", "result_value": 9.63}
{"compound": "C[C@H]1C[C@H]2[C@@H]3CCC4=CC(=O)C=C[C@]4(C)[C@@]3(F)[C@@H](O)C[C@]2(C)[C@@]1(O)C(=O)COP(=O)([O-])[O-].[Na+].[Na+] [BSP, betamethasone sodium phosphate]", "quantity_measured": "Short-term Dev. (%)", "result_value": "−1.19"}

A. CCC(=O)O[C@]1(C(=O)CO)[C@@H](C)C[C@H]2[C@@H]3CCC4=CC(=O)C=C[C@]4(C)[C@@]3(F)[C@@H](O)C[C@@]21C [B17P, betamethasone 17-monopropionate]
B. CCC(=O)OCC(=O)[C@@]1(OC(=O)CC)[C@@H](C)C[C@H]2[C@@H]3CCC4=CC(=O)C=C[C@]4(C)[C@@]3(F)[C@@H](O)C[C@@]21C [BDP, betamethasone dipropionate]
Req: Between A and B , whose recorded Short-term Dev. (%) is greater? Answer by stating the label of the chosen item.
Resp: A
(A: 9.09%, B: 4.0%)
